pKi values for the molecules below.
ASSAY_TARGET: human H3 receptor (Homo sapiens, UniProt Q9Y5N1)
Sequence (Q9Y5N1 whole entry): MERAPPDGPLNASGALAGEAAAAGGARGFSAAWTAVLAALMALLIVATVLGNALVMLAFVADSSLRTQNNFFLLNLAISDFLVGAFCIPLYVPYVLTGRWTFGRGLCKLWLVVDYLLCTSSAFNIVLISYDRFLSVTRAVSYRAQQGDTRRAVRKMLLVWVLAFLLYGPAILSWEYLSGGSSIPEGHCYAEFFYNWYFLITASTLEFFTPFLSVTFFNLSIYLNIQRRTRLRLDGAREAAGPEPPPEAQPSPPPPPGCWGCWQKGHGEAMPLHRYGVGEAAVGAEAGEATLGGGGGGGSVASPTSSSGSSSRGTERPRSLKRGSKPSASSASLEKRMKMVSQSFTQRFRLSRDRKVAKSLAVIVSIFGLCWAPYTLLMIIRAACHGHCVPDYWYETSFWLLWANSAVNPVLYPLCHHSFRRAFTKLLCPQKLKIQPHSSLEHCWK
TEST_DESCRIPTION: H3 Receptor Binding (Human) Method 2, [125I]-iodoproxyfan competitive radioligand binding
Parameters: expressed in transfected cells
REPORTED_CONDITIONS: Method 2; SK-N-MC cell membranes; [125I]-iodoproxyfan 1 nM; apparent Ki; free base or hydrochloride salt; average of results; read-out: Human H3 Ki
pKi: −log10 of the molar value.
READOUT_KIND: pKi

- O=C(N1CCCN(C2CCC2)CC1)[C@@]1(Cc2cccc(F)c2)CCCN1: 7.36
- O=C(N1CCCN(C2CCC2)CC1)[C@@]1(Cc2ccc(C(F)(F)F)cc2)CCCN1: 6.70
- CC(C)N1C[C@@H](Oc2ccc(F)cc2)C[C@@H]1C(=O)N1CCCN(C2CCC2)CC1: 7.92

Data origin: patent US8236792B2
